As shown below, each of these compounds has a reported GI50 value.
tested on: SN12C; assay: NCI tumour cell line growth inhibition, 48 h
Active and inactive are the calls of the source. No stated cut-off is given here; in the data, active = GI50 up to about 1.1 µM and inactive = higher.

Example entries and their recorded answers appear below.
CC(C)OP(=O)(OC(C)C)c1nn(-c2ccc([N+](=O)[O-])cc2)c(=N)s1 ... > 100 µM (inactive)
CN1N=C2c3ccccc3OC(c3ccccc3)[C@H]2C1c1ccccc1 (stereo partly specified) ... > 100 µM (inactive)
CC1=CC2=C(OCO1)C(=O)c1ccccc1C2=O ... 5.68 µM (inactive)
CCOC(=O)C#Cc1ccccc1 ... 5.55 µM (inactive)
COc1cc(Cc2cc3c(c(C(=O)O)c2Br)OCO3)cc(OC)c1OC ... > 100 µM (inactive)
Cc1ccc2c(c1)Sc1ccc(/N=N/N(C)C)cc1N2C ... > 100 µM (inactive)
O=C1Oc2cc3c(c4cccc1c24)O[C@H](c1ccccc1)[C@@H](c1ccccc1)[C@@H]3c1ccc(Cl)cc1 ... 79.4 µM (inactive)
OCCN(CCO)c1cccc(N(CCO)CCO)n1 ... > 10 µM (inactive)

input: What does the record list as GI50 for COC1=CC(=O)c2ccc(C(C)C)cc2C1(C)C1=NC(C)(C)CO1 (stereo unspecified) ?
output: > 100 µM (inactive)

input: What does the record list as GI50 for COc1ccc(OC)c2c(=O)cc(-c3ccccc3)[nH]c12 ?
output: > 100 µM (inactive)

input: What does the record list as GI50 for OC(CCN1CCCCC1)(c1ccccc1)c1ccccc1 [PRIDINOL] ?
output: > 100 µM (inactive)

====

system: HOP-92; assay: NCI tumour cell line growth inhibition, 48 h
Calls of active or inactive are those of the source. Cut-off read from the data, not from the text of the source: active = GI50 up to about 1.1 µM and inactive = higher.
Answer with one of the outcomes given here: class 1 (active), class 0 (inactive)

CC1C(=O)N(c2ccccc2)NC12CCCc1ccccc12 (configuration not stated) ... class 0

input: Which result was noted for this compound in the test: CS(=O)(=O)OCCN1CCN(C(=O)c2cccc3c(Nc4ccc(S(=O)(=O)N=C(N)N)cc4)c4ccccc4nc23)CC1
output: class 0

input: Which result was noted for this compound in the test: COc1cc(Cc2cc3c(c(C(=O)O)c2Br)OCO3)cc(OC)c1OC
output: class 0

input: Which result was noted for this compound in the test: CCCCCCCC(=O)NCC(O)CNC(=O)CCCCCCC
output: class 0

input: Which result was noted for this compound in the test: COc1cc2ccc(CC(N)=O)cc2cc1OC
output: class 0

====

system: A549; test: NCI tumour cell line growth inhibition, 48 h
Activity calls are given as the source filed them. Rule as the data show it: active = GI50 up to about 1.1 µM and inactive = higher.
As shown below, each of these compounds has a reported GI50 value.

Example entries and their recorded answers appear below.
Cc1cccc2c(O)cc(=O)oc12 ... > 100 µM (inactive)
O=C1C(CO)=C(CO)C(=O)c2c(O)ccc(O)c21 ... 1.64 µM (inactive)

Now for another entry.
input: Give GI50 (A549) of the following compound: O=C1CC(CC(OCc2ccccc2)C(COCc2ccccc2)OCc2ccccc2)CC(=O)N1 (stereo not drawn)
output: 27.4 µM (inactive)

====

test system: T47D; experiment: NCI tumour cell line growth inhibition, 48 h
Calls of active or inactive are those of the source. Rule as the data show it: active = GI50 up to about 1.1 µM and inactive = higher.
Answer with one of the outcomes given here: active, inactive

Look over these answered cases.
C/C(=C/CNc1ncnc2c1ncn2CCC(=O)O)CO ... inactive
Cc1nnc(Nc2ccc(Cl)cc2)o1 ... inactive
CN(C)c1ccc(/C=C2/SC(=S)NC2=O)cc1 ... inactive

input: Which result was noted for this molecule in the test: N=c1c2c(=S)n(-c3ccccc3)c(=S)n(-c3ccccc3)c2nc(SCCCN2CCCCC2)n1-c1ccccc1
output: inactive

input: Which result was noted for this molecule in the test: COc1cc([C@@H]2c3cc4c(cc3[C@@H](Nc3ccc(NC(=O)c5cc([N+](=O)[O-])cn5C)cc3)[C@H]3COC(=O)[C@H]23)OCO4)cc(OC)c1O
output: active
